Assay: Pharmacokinetics after single oral and intravenous administration in rats
Conditions: rat, plasma, po, 10 mg/kg
observationType: AUC

compound	AUC
CCCCN1C(=O)C(CC(C)C)NC(=O)C12CCN(Cc1ccc(Oc3ccccc3)cc1)CC2.Cl (centres unmarked)	96.7 ng·h/mL

// moving on: another record for AUC
# AUC lookup, item CCCCN1C(=O)C(CC2CCCCC2)NC(=O)C12CCN(Cc1ccc(Oc3ccccc3)cc1)CC2.Cl (centres unmarked)
24.8 ng·h/mL

###

Test: Pharmacokinetics after single oral and intravenous administration in rats
Conditions: rat, plasma, po, 10 mg/kg
Exercise: for every item that follows, state its recorded Cmax.
Include the unit right after the number.

compound	Cmax
CCCCN1C(=O)C(CC2CCCCC2)NC(=O)C12CCN(Cc1ccc(Oc3ccccc3)cc1)CC2.Cl (centres unmarked) [Compound 2]	5.6 ng/mL

# Cmax lookup, item CCCCN1C(=O)C(CC(C)C)NC(=O)C12CCN(Cc1ccc(Oc3ccccc3)cc1)CC2.Cl (centres unmarked) [Compound 1]
33.3 ng/mL
